methodNotes: Measurement of LogP values by HPLC on reversed phase columns (EEC directive 79/831 Annex V.A8)
Assay type: physicochemical
measurementParameters: method [a]: LC-UV, acidic range, 0.1% formic acid in water and acetonitrile as eluent; Table 1
chromatographic logP vs 2: less than gives condition met; not less than gives condition not met.

Past entries and their recorded results:
Cc1cccc(CC(O)(Cn2cncc2Cl)C2(Cl)CC2)c1F (stereo not shown) :: condition not met
N#Cc1cncn1CC(O)(Cc1cc(Cl)cc(Cl)c1)C1(Cl)CC1 (stereo not shown) :: condition not met
N#Cc1cncn1CC(O)(Cc1ccc(Br)cc1Cl)C1(Cl)CC1 (stereo not shown) :: condition not met
N#Cc1cncn1CC(O)(Cc1ccc(F)cc1)C1CCC1 (stereo not shown) :: condition not met
N#Cc1cncn1CC(O)(Cc1ccc(F)cc1F)CC1CC1 (stereo not shown) :: condition not met

Note: attention shifts to another entry.
query: A record lists OC(Cc1ccncc1Cl)(Cn1cncc1Cl)C1(Cl)CC1 (stereo not shown) . Is its chromatographic logP below 2?
result: condition met

###

methodNotes: Measurement of LogP values by HPLC on reversed phase columns (EEC directive 79/831 Annex V.A8)
Format: physicochemical
measurementParameters: method [a]: LC-UV, acidic range, 0.1% formic acid in water and acetonitrile as eluent; Table 1
propertyName: chromatographic logP
One number for each entry.

Required: chromatographic logP, one value per molecule below.
1. Nc1cncn1CC(O)(Cc1ccccc1Cl)C1(Cl)CC1 (stereo not shown)
2. CC1(C(O)(Cc2ccccc2Cl)Cn2cncc2C#N)CC1 (stereo not shown)
3. OC(Cc1cccnc1Cl)(Cn1cncc1Br)C1(Cl)CC1 (stereo not shown)
4. N#Cc1cncn1CC(O)(Cc1ccccc1)C1(Cl)CC1 (stereo not shown)

result:
[1.5, 2.87, 1.56, 2.64]
